# System: LG0567-F671-PDC complex spheroids viability
# assay_overview: Anticancer human tumor LG0567-F671-PDC patient-derived lung adenocarcinoma cell line growth inhibition [RAS]; active = viability on the fitted dose curve at most 10% of control; inactive = the rest
# particulars: second compound 0.03 µM; first compound 0.316 µM
Labels: true (active), false (inactive)

{"compound": "C=CC(=O)N1CCN(c2nc(OCC3CCCN3C)nc3c(F)c(-c4nc(N)cc(C)c4C(F)(F)F)c(Cl)cc23)C(C)C1 (configuration not stated) + CCn1c(-c2cccnc2C(C)OC)c2c3cc(ccc31)N1CCOC(CC(NC(=O)C(C(C)C)N(C)C(=O)C3(F)CCN(C(=O)C#CC(C)(C)N(C)C)CC3)C(=O)N3CCCC(N3)C(=O)OCC(C)(C)C2)C1", "class_assignment": "false"}
{"compound": "NC1c2ccccc2OC12CCN(c1cnc3c(N4CCCc5ncccc54)n[nH]c3n1)CC2 (configuration not stated) + CCn1c(-c2cccnc2C(C)OC)c2c3cc(ccc31)N1CCOC(CC(NC(=O)C(C(C)C)N(C)C(=O)C3(F)CCN(C(=O)C#CC(C)(C)N(C)C)CC3)C(=O)N3CCCC(N3)C(=O)OCC(C)(C)C2)C1", "class_assignment": "true"}
{"compound": "CCN1CCN(Cc2ccc(Nc3ncc(F)c(-c4cc(F)c5nc(C)n(C(C)C)c5c4)n3)nc2)CC1 + CCn1c(-c2cc(N3CCN(C)CC3)cnc2C(C)OC)c2c3cc(ccc31)-c1csc(n1)CC(NC(=O)C1CC1C)C(=O)N1CCCC(N1)C(=O)OCC(C)(C)C2", "class_assignment": "true"}
{"compound": "Nc1ccn(C2OC(CO)C(O)C2(F)F)c(=O)n1 (configuration not stated) + CCn1c(-c2cc(N3CCN(C)CC3)cnc2C(C)OC)c2c3cc(ccc31)-c1csc(n1)CC(NC(=O)C1CC1C)C(=O)N1CCCC(N1)C(=O)OCC(C)(C)C2", "class_assignment": "true"}
{"compound": "CC(=O)OC12COC1CC(O)C1(C)C(=O)C(O)C3=C(C)C(OC(=O)C(O)C(NC(=O)OC(C)(C)C)c4ccccc4)CC(O)(C(OC(=O)c4ccccc4)C21)C3(C)C (configuration not stated) + CCn1c(-c2cc(N3CCN(C)CC3)cnc2C(C)OC)c2c3cc(ccc31)-c1csc(n1)CC(NC(=O)C1CC1C)C(=O)N1CCCC(N1)C(=O)OCC(C)(C)C2", "class_assignment": "true"}
{"compound": "CC1(O)CCCC1n1c(=O)c(C(F)F)cc2cnc(NC3CCN(S(C)(=O)=O)CC3)nc21 (configuration not stated) + CCn1c(-c2cccnc2C(C)OC)c2c3cc(ccc31)N1CCOC(CC(NC(=O)C(C(C)C)N(C)C(=O)C3(F)CCN(C(=O)C#CC(C)(C)N(C)C)CC3)C(=O)N3CCCC(N3)C(=O)OCC(C)(C)C2)C1", "class_assignment": "false"}
{"compound": "C=CC(=O)Nc1cc(Nc2nccc(-c3cn(C)c4ccccc34)n2)c(OC)cc1N(C)CCN(C)C + CCn1c(-c2cccnc2C(C)OC)c2c3cc(ccc31)N1CCOC(CC(NC(=O)C(C(C)C)N(C)C(=O)C3(F)CCN(C(=O)C#CC(C)(C)N(C)C)CC3)C(=O)N3CCCC(N3)C(=O)OCC(C)(C)C2)C1", "class_assignment": "true"}

----------
# Tested on: LG0567-F671-PDC complex spheroids viability
# assay_overview: Anticancer human tumor LG0567-F671-PDC cell line growth inhibition [RAS]; active means viability on the fitted dose curve at most 10% of control; inactive means the rest;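 note: spheroids exposed to compound for seven days before readout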
# particulars: second compound 0.003 µM; first compound 0.03 µM
Labels: active, inactive

{"molecule": "CCc1c2c(nc3ccc(O)cc13)-c1cc3c(c(=O)n1C2)COC(=O)[C@]3(O)CC + CCn1c(-c2cccnc2C(C)OC)c2c3cc(ccc31)N1CCOC(CC(NC(=O)C(C(C)C)N(C)C(=O)C3(F)CCN(C(=O)C#CC(C)(C)N(C)C)CC3)C(=O)N3CCCC(N3)C(=O)OCC(C)(C)C2)C1", "class_assignment": "active"}
{"molecule": "CC1(C)CCC(Nc2ncc(C(F)(F)F)c(-c3c[nH]c4c(P(C)(C)=O)c(C#N)ccc34)n2)CN1 (centres undefined) + CCn1c(-c2cccnc2C(C)OC)c2c3cc(ccc31)N1CCOC(CC(NC(=O)C(C(C)C)N(C)C(=O)C3(F)CCN(C(=O)C#CC(C)(C)N(C)C)CC3)C(=O)N3CCCC(N3)C(=O)OCC(C)(C)C2)C1", "class_assignment": "inactive"}
{"molecule": "CCc1c2c(nc3ccc(O)cc13)-c1cc3c(c(=O)n1C2)COC(=O)[C@]3(O)CC + CCn1c(-c2cc(N3CCN(C)CC3)cnc2C(C)OC)c2c3cc(ccc31)-c1csc(n1)CC(NC(=O)C1CC1C)C(=O)N1CCCC(N1)C(=O)OCC(C)(C)C2", "class_assignment": "active"}
{"molecule": "CC1(C)CCC(Nc2ncc(C(F)(F)F)c(-c3c[nH]c4c(P(C)(C)=O)c(C#N)ccc34)n2)CN1 (centres undefined) + CCn1c(-c2cc(N3CCN(C)CC3)cnc2C(C)OC)c2c3cc(ccc31)-c1csc(n1)CC(NC(=O)C1CC1C)C(=O)N1CCCC(N1)C(=O)OCC(C)(C)C2", "class_assignment": "active"}
